target: Mitogen-activated protein kinase kinase kinase 7 (Homo sapiens); experiment: Enzymatic radiometric [Km ATP] KinaseProfiler LeadHunter assay, kinase: TAK1, catalogue number: 14-600KP The assay has been performed by Eurofins Discovery.; conditions: ATP concentration 45.0 uM, Test compound concentration 10.0 uM
READOUT KIND: Activity (%)
Numeric answer only, unit % assumed.

# count of solved cases: 3
| SMILES DATA | STUDY SYSTEM | OBSERVED RESULT |
| --- | --- | --- |
| Cn1ncc(-c2cc3c(N[C@@H](c4ccc5c(n4)OCCO5)C(C)(C)C)ncnc3[nH]2)c1C#N | Mitogen-activated protein kinase kinase kinase 7 (Homo sapiens) | 95 |
| CNC(=O)Cn1cc(-c2cc3c(N[C@@H](c4ccc5c(c4)S(=O)(=O)CCC5)C(C)C)ncnc3[nH]2)cn1 | Mitogen-activated protein kinase kinase kinase 7 (Homo sapiens) | 99 |
| C[C@H](C(=O)O)[C@@H](NC(=O)c1ncnc2[nH]ccc12)c1ccc(Br)cc1 | Mitogen-activated protein kinase kinase kinase 7 (Homo sapiens) | 95 |

QUERY: I'm curious: which Activity was measured for `CNCc1cc(-c2cc3c(N[C@@H](c4ccc5c(c4)S(=O)(=O)CCC5)C(C)C)ncnc3[nH]2)co1` tested on Mitogen-activated protein kinase kinase kinase 7 (Homo sapiens)?
RESULT: 90

QUERY: Record: `COc1ccc([C@H](Cc2nnn[nH]2)NC(=O)c2ncnc3[nH]ccc23)cc1`
RESULT: 99

QUERY: Record: `CC(C)[C@H](Nc1ncnc2[nH]ccc12)c1ccc2c(c1)S(=O)(=O)CCC2`
RESULT: 90

QUERY: Record: `CC(C)[C@@H](Nc1ncnc2[nH]ccc12)c1ccc2c(c1)S(=O)(=O)CCC2`
RESULT: 83

QUERY: Record: `COc1ccc([C@@H](Cc2nnn[nH]2)NC(=O)c2ncnc3[nH]ccc23)cc1`
RESULT: 88

QUERY: Record: `Cc1nn(C)cc1-c1cc2c(N[C@H](c3ccc4c(c3)S(=O)(=O)CCC4)C(C)C)ncnc2[nH]1`
RESULT: 100

QUERY: Record: `CC(C)[C@@H](Nc1ncnc2[nH]c(C(=O)N[C@@H]3CCN(C)C3)cc12)c1ccc2c(c1)S(=O)(=O)CCC2`
RESULT: 100

QUERY: Record: `CC(C)[C@H](Nc1ncnc2[nH]c(-c3cnn(C)c3C#N)cc12)c1ccc2c(n1)OCCO2`
RESULT: 94
